# credit: patent US20100261710A1

Target: HDAC8 (Homo sapiens)
Sequence (Q9BY41 whole entry, canonical isoform): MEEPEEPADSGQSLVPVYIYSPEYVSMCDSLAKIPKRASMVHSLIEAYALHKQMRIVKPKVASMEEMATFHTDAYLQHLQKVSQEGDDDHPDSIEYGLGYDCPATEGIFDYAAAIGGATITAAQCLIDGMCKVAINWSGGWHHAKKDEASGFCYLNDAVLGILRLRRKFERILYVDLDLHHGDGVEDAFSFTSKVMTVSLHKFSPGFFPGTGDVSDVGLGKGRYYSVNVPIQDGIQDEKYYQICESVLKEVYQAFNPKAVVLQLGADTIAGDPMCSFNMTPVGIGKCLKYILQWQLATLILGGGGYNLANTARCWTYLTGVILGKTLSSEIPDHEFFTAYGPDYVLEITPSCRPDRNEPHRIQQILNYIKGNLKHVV
Test: HDAC isoform assay, HDAC8
Reported log10(IC50) by item:
Hey, these are logged values: log10 of IC50, µM being the unit before logging.

Example cases with answers are listed next.
[[record]]
given_smiles = "O=C(CCCCCNC(=O)c1cn2c3c(cccc13)CCC2)NO"
assay_result = 0.04

[[record]]
given_smiles = "O=C(CCCNC(=O)C(=O)c1cn2c3c(cccc13)CCC2)NO"
assay_result = 1.00

[[record]]
given_smiles = "O=C(CCCCCNC(=O)C(=O)c1cn2c3c(cccc13)CCC2)NO"
assay_result = 0.97


// log10(IC50) value for O=C(CCCCCCNC(=O)Nc1cn2c3c(cccc13)CCC2)NO : -0.31

// log10(IC50) value for O=C(CCCCCNC(=O)Nc1cn2c3c(cccc13)CCC2)NO : -0.04

// log10(IC50) value for O=C(CCCCCCNC(=O)C(=O)c1cn2c3c(cccc13)CCC2)NO : 0.81

// log10(IC50) value for O=C(CCC1CCN(C(=O)c2cn3c4c(cccc24)CCC3)CC1)NO : 0.70

// log10(IC50) value for O=C(CCCCCCNC(=O)c1cn2c3c(cccc13)CCC2)NO : -0.39

// log10(IC50) value for CC(C)(C)OC(=O)N1CCn2cc(C(=O)NCc3ccc(C(=O)NO)cc3)c3cccc(c32)C1 : 0.54
